Entry source: PubChem BioAssay (NCI)

- Tested on: HS 578T breast
- assay.info: NCI-60 one-dose screen, 48 h
- condition.context: 10 µM unless noted
The panel holds about 83,000 compounds, 20% with a hit somewhere; the sample as a whole holds those more often. Calls of active or inactive are those of the source. How the source made its calls: active means growth percent below 10; inactive means the rest.
Tick one outcome: 1 for active, 0 for inactive

C=C(C)[C@@H]1CC[C@]2(C(=O)NC(C)=O)CC[C@]3(C)[C@H](CC[C@@H]4[C@@]5(C)CCCNC(C)(C)[C@@H]5CC[C@]43C)[C@@H]12 = 0
COC(=O)[C@H](C)NC(=O)[C@@H]1CCCN1C(=O)CNC(=O)[C@H](C)N = 0
CN1CCN(Cc2ccc(NC(=O)c3cncc(C#Cc4c(N)ncc5c(F)cccc45)c3)cc2C(F)(F)F)CC1 = 1
C#CCOC(=O)C(N)CSSCC(N)C(=O)O (centres undefined) = 0
C=C1C(=O)O[C@H]2[C@H]1CC/C(CNC(=O)/C=C/c1cc(OC)c(OC)c(OC)c1)=C\CC[C@@]1(C)O[C@@H]21 = 0

Request: Status in this test for Oc1c(Cl)cc(Cl)c2ccc(CN3CCNCC3)nc12 ?
Result: 0

Request: Look up the recorded call for COc1cccc(C2C(C#N)=C(N)Oc3c2ccc2ccccc32)c1 (centres undefined) in this test.
Result: 0

Request: Any idea what this test logged for O=CN1N=C(c2cccc(Nc3ccncc3)c2)CC1c1ccc2c(c1)OCO2 (centres undefined) ?
Result: 0

* * *

- Test system: HS 578T breast
- assay.info: NCI-60 one-dose screen, 48 h (100 = growth as untreated, 0 = no growth, -100 = all killed)
- condition.context: 10 µM unless noted
This is part of a sample that, as a whole, favours compounds with a hit. Of some 83,000 tested, about 20% had one in any assay.
Please note: True applies when growth is 80% or greater, and False applies otherwise.

// below: answered compounds
COc1ccc(C2=NN3C(C2)c2cc(Br)ccc2OC3c2ccncc2)cc1 (configuration not stated) = True
COc1nc2ccccc2cc1/C=C1/C=C(c2ccccc2)NC1=O = False
CCOc1ccccc1NC(=O)CCC(=O)OC = True
CC1=NC(=S)NC(c2ccccc2)/C1=C1/CC(c2ccccc2O)NN1 (configuration not stated) = True
C=C(c1ccc(OC)c(/C=C/C(=O)c2cc(OC)c(OC)c(OC)c2)c1)c1cc(OC)c(OC)c(OC)c1 = True

Request: Decide: growth of O=C(O)/C=C\C(=O)Nc1ccc2c(c1)Cc1cc(F)ccc1-2 >= 80%?
Result: True

Request: Reported growth reaches at least 80% for O=c1ccc2c(ccc3ncccc32)o1 ?
Result: True

Request: Reported growth reaches at least 80% for O=C(Nc1ccccc1C(F)(F)F)C1=NCCCCN1 ?
Result: True

Request: Decide: growth of COc1ccccc1-c1nc2ccc3[nH]ncc3c2c2c1CCCC2 >= 80%?
Result: False

Request: Form field: growth at least 80%? Entry: COc1cc(C(=O)n2nc(NCCCc3ccccc3)c3cc(N)ccc32)cc(OC)c1OC
Result: True

Request: Reported growth at or above 80%? COc1cccc2cc(N(C)c3ncnc4ccccc34)ccc12
Result: False

Request: Does the reported growth for COC(=O)CCc1c(/C=C2\N=C(c3ccc[nH]3)C=C2OC)[nH]c(C)c1C(=O)OCc1ccccc1 fall at or above the 80% mark?
Result: False

Request: Say whether O=C(Nc1ncc(Cc2ccc(Cl)cc2)s1)C1=NCCCCN1 shows growth of 80% or more.
Result: True

Request: Check the entry N=C(N)c1ccc(-c2ccc(-c3ccccc3)s2)nc1 : does growth equal or exceed 80%?
Result: True

Request: Test whether the compound CN(C)CCCN(CCC1CCCCC1)CCC1CCCCC1 records growth of 80% or higher.
Result: False
